# Test system: Streptococcus sp.
# assayDetails: in vitro antibacterial evaluation, MIC by broth dilution
# Format: cell-based
# conditionParameters: broth dilution, 18 hours at 35° C.
I'd appreciate it if you could supply MIC Streptococcus pneumoniae (ATCC 6301) values for the items below.

compound	valueMeasured
CC(c1ccccc1)C1NC(=O)CNC(=O)C(CO)NC(=O)C(C(O)C2CNC(=N)N2C2OC(CO)C(O)C(O)C2O)NC(=O)C(C(O)C2CNC(=N)N2)NC(=O)C(Cc2ccc(OC3OC(CO)C(OC4OC(CO)C(OCC=C(c5ccccc5)c5ccccc5)C(O)C4O)C(O)C3O)cc2)NC1=O (stereo not shown) [Example 241a]	<0.06 µg/mL
N=C1NCC(C(O)C2NC(=O)C(Cc3ccc(OC4OC(CO)C(OC5OC6COC(Cc7ccccc7)OC6C(O)C5O)C(O)C4O)cc3)NC(=O)C(CC3CCCCC3)NC(=O)CNC(=O)C(CO)NC(=O)C(C(O)C3CNC(=N)N3C3OC(CO)C(O)C(O)C3O)NC2=O)N1 (stereo not shown)	<0.06 µg/mL
CC(c1ccccc1)C1NC(=O)CNC(=O)C(CO)NC(=O)C(C(O)C2CNC(=N)N2C2OC(CO)C(O)C(O)C2O)NC(=O)C(C(O)C2CNC(=N)N2)NC(=O)C(Cc2ccc(OC3OC(CO)C(OC4OC5COC6(OC5C(O)C4O)C(C)CCCC6C)C(O)C3O)cc2)NC1=O (stereo not shown)	<0.12 µg/mL

# input for lookup
Please respond with reported MIC Streptococcus pneumoniae (ATCC 6301) (system Streptococcus sp.) for CC(C1CCCCC1)C1NC(=O)CNC(=O)C(CO)NC(=O)C(C(O)C2CNC(=N)N2C2OC(CO)C(O)C(O)C2O)NC(=O)C(C(O)C2CNC(=N)N2)NC(=O)C(Cc2ccc(OC3OC(CO)C(OC4OC5COC6(OC5C(O)C4O)C4CC5CC(C4)CC6C5)C(O)C3O)cc2)NC1=O (stereo not shown) .
<0.12 µg/mL
